# EXPERIMENTAL_SYSTEM: Alpha-2A adrenergic receptor (Homo sapiens)
# Sequence (P08913 whole entry): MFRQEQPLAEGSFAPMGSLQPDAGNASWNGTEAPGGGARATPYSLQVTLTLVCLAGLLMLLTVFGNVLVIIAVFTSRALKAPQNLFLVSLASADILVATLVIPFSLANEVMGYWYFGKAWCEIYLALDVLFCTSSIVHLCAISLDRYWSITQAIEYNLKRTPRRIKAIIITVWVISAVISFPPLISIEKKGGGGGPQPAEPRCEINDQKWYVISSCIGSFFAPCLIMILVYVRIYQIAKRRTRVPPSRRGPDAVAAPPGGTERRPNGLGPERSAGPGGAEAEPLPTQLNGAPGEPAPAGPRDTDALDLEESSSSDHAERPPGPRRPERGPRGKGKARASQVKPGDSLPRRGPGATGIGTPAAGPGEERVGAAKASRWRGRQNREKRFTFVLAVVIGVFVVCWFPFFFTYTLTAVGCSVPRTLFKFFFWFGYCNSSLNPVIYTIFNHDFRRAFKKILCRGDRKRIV
QUANTITY_NAME: Ki

INSERT INTO measurements (compound, quantity_name, measured_result) VALUES
  ('CC1COCc2sc(NC(=S)Nc3ccccc3)c(C(=O)OC(C)(C)C)c21 (configuration not stated)', 'Ki', '> 10 µM');

In the following, a different compound is considered.
Which measured Ki belongs to C[C@@H](NC(=S)Nc1sc2c(c1C(=O)OC(C)(C)C)CCOC2)c1ccccc1 , tested on Alpha-2A adrenergic receptor (Homo sapiens)?
> 10 µM

###

# EXPERIMENTAL_SYSTEM: C-X-C chemokine receptor type 2 (Homo sapiens, UniProt P25025)
# Sequence (P25025 whole entry, the tested form may be a part): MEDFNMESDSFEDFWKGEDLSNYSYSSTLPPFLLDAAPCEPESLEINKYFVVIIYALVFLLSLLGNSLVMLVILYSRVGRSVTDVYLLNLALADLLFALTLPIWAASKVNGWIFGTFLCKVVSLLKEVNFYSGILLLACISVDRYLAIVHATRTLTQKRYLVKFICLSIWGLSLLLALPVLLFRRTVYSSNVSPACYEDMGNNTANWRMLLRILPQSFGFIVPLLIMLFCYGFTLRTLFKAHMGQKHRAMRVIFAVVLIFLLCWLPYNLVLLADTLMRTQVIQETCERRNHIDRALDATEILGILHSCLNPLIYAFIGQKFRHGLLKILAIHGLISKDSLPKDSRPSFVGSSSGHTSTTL
# EXPERIMENT_DESCRIPTION: Antagonist activity at CXCR2 (unknown origin) expressed in U2OS cells cotransfected with beta-arrestin/TEV protease fusion protein and beta-lactamase assessed as inhibition of CXCL8-induced beta arrestin2 recruitment preincubated for 30 mins followed by CXCL8 stimulation and measured after 5 hrs by FRET based fluorescence/Tango assay
# Assay type: cell-based
QUANTITY_NAME: IC50 (nM)

INSERT INTO results (molecule, unit_info, measured_result) VALUES
  ('CC1CCCc2sc(NC(=S)Nc3ccc(OC(F)(F)F)cc3)c(C(=O)OC(C)(C)C)c21 (stereo not given)', 'nM', 10600),
  ('CC(C)(C)OC(=O)c1c(NC(=S)Nc2ccc(F)cc2)sc2c1CCOC2', 'nM', 1100),
  ('CC1CCCc2sc(NC(=S)Nc3ccccc3)c(C(=O)Nc3ccccc3)c21 (stereo not given)', 'nM', 2700),
  ('CCOC(=O)c1c(NC(=S)Nc2ccc(C(F)(F)F)cc2)sc2c1C(C)CCC2 (stereo not given)', 'nM', 2000),
  ('COc1cccc(NC(=S)Nc2sc3c(c2C(=O)OC(C)(C)C)C(C)CCC3)c1 (stereo not given)', 'nM', 2700);

(a) CC(C)OC(=O)c1c(NC(=S)Nc2ccccc2)sc2c1C(C)CCC2 (stereo not given)
(b) CC(C)(C)OC(=O)c1c(NC(=S)Nc2ccc(OC(F)(F)F)cc2)sc2c1CCOC2
(c) CC(C)(C)OC(=O)c1c(NC(=S)Nc2ccccc2)sc2c1CCCO2
Your job: order these 3 records by IC50, ascending. Arrange the labels as the request states and list them.
b, a, c
(b: 1600 nM, a: 2700 nM, c: 4100 nM)
